target: T1, human CLDN18.2 (human); assay: imaging cytometry (% fluorescent cells), HEK293T-hCLDN18.2 cells
T1 construct: over-expressed on HEK293T or OCUM-1 cells by lentivirus; KATO-III and NUGC4 gastric cancer cells express it naturally; also called hCLDN18.2; hCLDNA18.2
I'd appreciate it if you could supply EC50 values for the items below.
Numeric answer only, unit µg/mL assumed.

*Q* # query: EC50 of entry 175D10 (antibody, human IgG1, kappa, V domains shown) VH: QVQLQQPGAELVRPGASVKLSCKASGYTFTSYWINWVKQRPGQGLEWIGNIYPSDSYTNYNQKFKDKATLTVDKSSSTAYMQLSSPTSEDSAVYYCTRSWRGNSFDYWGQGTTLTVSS VL: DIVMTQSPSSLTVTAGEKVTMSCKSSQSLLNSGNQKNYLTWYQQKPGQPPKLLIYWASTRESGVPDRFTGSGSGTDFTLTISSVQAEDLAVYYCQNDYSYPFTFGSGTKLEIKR
*A* 0.035

*Q* # query: EC50 of entry 7004-09hu15 (antibody, human IgG1, kappa, V domains shown, humanized antibody of murine 44F7, human IgG1/kappa constant regions) VH: QVQLVQSGAEVKKPGASVKVSCKASGYTFTSYYMHWVRQAPGQGLEWMGTIYPGNGDTSYNQKFQGRVTMTRDKSTSTVYMELSSLRSEDTAVYFCARGGYYGNSLDYWGQGTLVTVSA VL: DIVMTQSPDSLAVSLGERATINCKSSQSVLNSGNQKNYLAWYQQKPGQPPKLLIYWASTRESGVPDRFSGSGSGTDFTLTISSLQAEDVAVYYCQNAYYYPFTFGQGTKLEIKR
*A* 0.008

*Q* # query: EC50 of entry 7004-09hu10 (antibody, human IgG1, kappa, V domains shown, humanized antibody of murine 44F7, human IgG1/kappa constant regions) VH: QVQLVQSGAEVKKPGASVKVSCKASGYTFTSYYMHWVRQAPGQGLEWMGTIYPGNGDTSYNQKFQGRVTMTRDKSTSTVYMELSSLRSEDTAVYFCARGGYYGNSLDYWGQGTLVTVSA VL: DIVMTQSPDSLAVSLGERATINCKSSQSLLNSGNQKNYLTWYQQKPGQPPKLLIYWASTRESGVPDRFSGSGSGTDFTLTISSLQAEDVAVYYCQNAYYYPFTFGQGTKLEIKR
*A* 0.047

*Q* # query: EC50 of entry 44F7-chIgG1 (antibody, V domains shown, human-mouse chimeric antibody, human IgG1/kappa constant regions; also called parental chimeric antibody) VH: QVQLQQSGAELVRPGASVKMSCKASGYTFTSYNMHWVKQAPRQGLEWIGTIYPGNGDTSYNQKFKGKATLTVDKSSSTAYMQLSSLTSEDSAVYFCARGGYYGNSLDYWGQGTTLTVSS VL: DIQMTQSPSSLTVTAGEKVTMSCKSSQSLLNSGNQKNYLTWYQQKPGQPPKLLIYWASTRESGVPDRFTGSGSGTDFTLTISSVQAEDLAVYYCQNAYYYPFTFGSGTKLEIKR
*A* 0.012

*Q* # query: EC50 of entry 7004-09hu09 (antibody, human IgG1, kappa, V domains shown, humanized antibody of murine 44F7, human IgG1/kappa constant regions) VH: QVQLVQSGAEVKKPGASVKVSCKASGYTFTSYNMHWVRQAPGQGLEWMGTIYPGNGDTSYNQKFQGRVTMTRDKSTSTVYMELSSLRSEDTAVYFCARGGYYGNSLDYWGQGTLVTVSA VL: DIVMTQSPDSLAVSLGERATINCKSSQSLLNSGNQKNYLAWYQQKPGQPPKLLIYWASTRESGVPDRFSGSGSGTDFTLTISSLQAEDVAVYYCQNAYYYPFTFGQGTKLEIKR
*A* 0.051

Hey, just so you know, these numbers are from patent US20210403552A1.
